Assignment: determine reported DC50 for the given compounds.
# tested-target: KRAS (G12D) (Homo sapiens, UniProt P01116, G12D)
# Construct: in-cell western with KRAS G12D antibody after 24 h
# Sequence (P01116 1-188 isoform P01116-2 G12D): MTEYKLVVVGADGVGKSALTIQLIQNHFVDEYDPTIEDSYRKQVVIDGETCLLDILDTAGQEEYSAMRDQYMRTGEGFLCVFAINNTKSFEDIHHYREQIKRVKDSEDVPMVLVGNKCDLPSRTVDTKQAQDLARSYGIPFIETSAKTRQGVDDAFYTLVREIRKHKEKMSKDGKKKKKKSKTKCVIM
# assay-protocol: KRAS (G12D) cellular degradation assay in AsPC-1 cells
# Assay type: cell-based
# assay-context: 24 hours, antibody fluorescence (Odyssey CLX), DC50 half-maximal degradation concentration

stdin: GET /values?readout=DC50&item= CO[C@H]1C[C@H](Oc2nc(N(C)[C@H]3CCNC3)c3cc(C4CC4)c(-c4c(C)c(F)cc5[nH]ncc45)c(OCc4ccc(-c5cn([C@H](C(=O)N6C[C@H](O)C[C@H]6C(=O)N[C@H](c6ccc(-c7scnc7C)cc6)[C@H](C)O)C(C)C)nn5)cc4)c3n2)C1
stdout: < 10 nM

stdin: Would you mind telling me what DC50 value was observed for Cc1ncsc1-c1ccc([C@@H](NC(=O)[C@@H]2C[C@@H](O)CN2C(=O)[C@H](C(C)C)n2cc(-c3ccc(COc4c(-c5c(C)c(F)cc6[nH]ncc56)c(C5CC5)cc5c(N6C[C@@H]7C[C@H]6CN7)nc(OC6CCC7(CC6)COC7)nc45)cc3)nn2)[C@H](C)O)cc1 ?
stdout: < 10 nM
